Values from paper PMC7089611

A collection of molecules and their measured Turn content
# measurement protocol: Secondary structural content by CD spectroscopy
# Type: physicochemical
# run conditions: 25 °C, protein 5 μM, 50 mM Tris–HCl pH 7.5, 150 mM NaCl, 0.1% β‐mercaptoethanol, CDSSTR
Give the value, in units of %, as a plain number.

Requested read-out: Turn content. Entry: N245–382: truncated C‐terminal domain of the HCoV‐229E N protein, extended C‐terminal tail that includes residue 382 (protein, left off: His6, C-terminal, state not stated) QKPRWKRQPNDDVTSNVTQCFGPRDLDHNFGSAGVVANGVKAKGYPQFAELVPSTAAMLFDSHIVSKESGNTVVLTFTTRVTVPKDHPHLGKFLEELNAFTREMQQHPLLNPSALEFNPSQTSPATAEPVRDEVSIET
19

Requested read-out: Turn content. Entry: N245–389: truncated C‐terminal domain of the HCoV‐229E N protein, extended C‐terminal tail that includes residue 389 (protein, left off: His6, C-terminal, state not stated) QKPRWKRQPNDDVTSNVTQCFGPRDLDHNFGSAGVVANGVKAKGYPQFAELVPSTAAMLFDSHIVSKESGNTVVLTFTTRVTVPKDHPHLGKFLEELNAFTREMQQHPLLNPSALEFNPSQTSPATAEPVRDEVSIETDIIDEVN
16

Requested read-out: Turn content. Entry: N245–376: truncated C‐terminal domain of the HCoV‐229E N protein, extended C‐terminal tail that includes residue 376 (protein, left off: His6, C-terminal, state not stated) QKPRWKRQPNDDVTSNVTQCFGPRDLDHNFGSAGVVANGVKAKGYPQFAELVPSTAAMLFDSHIVSKESGNTVVLTFTTRVTVPKDHPHLGKFLEELNAFTREMQQHPLLNPSALEFNPSQTSPATAEPVRD
16

Now consider the entry below.
Requested read-out: Turn content. Entry: N245–370: truncated C‐terminal domain of the HCoV‐229E N protein, extended C‐terminal tail that includes residue 370 (protein, left off: His6, C-terminal, state not stated) QKPRWKRQPNDDVTSNVTQCFGPRDLDHNFGSAGVVANGVKAKGYPQFAELVPSTAAMLFDSHIVSKESGNTVVLTFTTRVTVPKDHPHLGKFLEELNAFTREMQQHPLLNPSALEFNPSQTSPAT
14
